Tested on: Calu-3
Assay: cell viability relative to DMSO; higher = less toxic
Details: 72 h; 10000 nM
Quantity kind: cell viability (%)
The reply should be a number in %, with the unit left off.

## Input Data request, read-out cell viability, for "CN(C)c1cccc(-c2c3c(=O)n(-c4ccccc4Cl)[nH]c3cc(=O)n2C)c1"
## Output 92.6

## Input Here is the next compound: CCC(=O)O[C@H](CC(=O)O)C[N+](C)(C)C [levocarnitine-propionate]
## Output 85.8

## Input Here is the next compound: "CCc1c(C(=O)Nc2cc(S(=O)(=O)N(CC)CC)ccc2O)[nH]c(C)c1C(C)=O"
## Output 108

## Input Here is the next compound: Cc1cc(O)c(C(=O)N[C@@H](C(=O)N[C@@H]2C(=O)N3C(C(=O)O)=C(CSc4nnnn4C)CS[C@H]23)c2ccc(O)cc2)cn1 [cefpiramide]
## Output 98

---

Please respond with reported cell viability for every item in the list.
Tested on: HepG2
Assay: cell viability relative to DMSO; higher = less toxic
Settings: 72 h; 1 nM
The reply should be a number in %, with the unit left off.

## Input Item: "c1ccc2c(CC3=NCCN3)cccc2c1" Test system: HepG2 Read-out: cell viability Value: ?
## Output 96.1

## Input Here is the next compound: "Cc1cc(C)c(CNC(=O)c2cc(-c3ccc(N4CCN(C)CC4)nc3)cc3c2c(C)cn3C(C)C)c(=O)[nH]1"
## Output 92.6

## Input Here is the next compound: "N=C(N)NN=C1C=CC(=NNC(N)=S)C=C1"
## Output 97.1

## Input Here is the next compound: "Cc1ncc(C)n2nc([C@@H]3C[C@H]3c3nc4c5cccnc5ccn4c3C)nc12"
## Output 98.7

## Input Here is the next compound: "COC(=O)C1=C(C)NC(C)=C(C(=O)OCCSc2ccccc2)[C@@H]1C"
## Output 92

## Input Here is the next compound: "Cc1c(F)cc(C(=O)NC2CC2)cc1-c1ccc(C(=O)NCC(C)(C)C)cn1"
## Output 97.9

## Input Here is the next compound: "COC(=O)[C@H](Cc1ccc([N+](=O)[O-])cc1)NC(=O)c1cccc2ccccc12"
## Output 102

---

Please respond with reported drug sensitivity score for every item in the list.
Test system: Caco-2
Assay: drug sensitivity score (DSS) for viability; higher = more toxic; extreme values may be limits of the assay
Settings: 72 h

## Input Data request, read-out drug sensitivity score, for "CC[C@@H](C)Nc1cc(C(=O)N[C@H]2C[C@H]3CC[C@@H](C2)N3c2ccc(C(=O)C3CC3)cn2)c(C)cc1C(N)=O"
## Output 17.3

## Input Here is the next compound: CC(C)NCC(O)COc1cccc2ccccc12 (stereo not given)
## Output 0

## Input Here is the next compound: COc1ccc2[nH]c(SCc3ncc(C)c(OC)c3C)nc2c1 [omeprazole-sulfide]
## Output 0

## Input Here is the next compound: "N#Cc1cc2nc(O)c(O)nc2cc1[N+](=O)[O-]"
## Output 0

## Input Here is the next compound: "Nc1nc(OCc2cc(Br)cs2)c2[nH]cnc2n1"
## Output 0

## Input Here is the next compound: "CCCN1CCO[C@@H]2c3cc(O)ccc3OC[C@H]21"
## Output 0

## Input Here is the next compound: "COCc1nnc(N2CC(Oc3ccc(F)cc3Cl)C2)n1-c1ccc(OC)nc1"
## Output 0

## Input Here is the next compound: "Cc1nnc2n1-c1sc(CCC(=O)N3CCOCC3)cc1C(c1ccccc1Cl)=NC2"
## Output 0

## Input Here is the next compound: "Clc1cccc(Cl)c1NC1=NCCN1"
## Output 0

## Input Here is the next compound: "CCN(CC)S(=O)(=O)c1ccc(C(=O)O)cc1"
## Output 0

## Input Here is the next compound: "CC(C)n1cnc2c(NCCc3ccc(O)cc3)nc(-c3csc4ccccc34)nc21"
## Output 2.5

## Input Here is the next compound: "CNC(=O)CN1CCC(Oc2cc3c(Nc4cccc(Cl)c4F)ncnc3cc2OC)CC1"
## Output 4.6

## Input Here is the next compound: "O=C(O)c1ccc2[nH]cc(CCCCN3CC=C(c4ccccc4)CC3)c2c1"
## Output 0

## Input Here is the next compound: "CCOC(=O)Nc1ccc2c(c1)N(C(=O)CN(C)C)c1ccccc1CC2"
## Output 0

## Input Here is the next compound: Cc1ccccc1C(=O)Nc1ccc(C(=O)N2CCCC(N(C)C)c3ccccc32)cc1 (stereo not given)
## Output 4.7

## Input Here is the next compound: O=C(O)[C@H](O)[C@@H](O)[C@H](O)[C@H](O)CO [sodium-gluconate]
## Output 0

## Input Here is the next compound: "COC(=O)c1ccc2c(c1)NC(=O)/C2=C(\Nc1ccc(N(C)C(=O)CN2CCN(C)CC2)cc1)c1ccccc1"
## Output 0

## Input Here is the next compound: "Cc1nc2ccc(-n3ncc(C(=O)c4cc5ccccc5[nH]4)c3N)cc2[nH]1"
## Output 0.8

## Input Here is the next compound: "Cc1ccc(-c2ccc(C)cn2)nc1"
## Output 0

## Input Here is the next compound: Cc1ccc(OC[C@@H](O)[C@H](C)NC(C)C)c2c1CCC2 (racemic)
## Output 0

## Input Here is the next compound: "COc1ccccc1S(=O)(=O)Nc1ccc2c(c1)CN(C)C(=O)N2"
## Output 1.7

## Input Here is the next compound: "Cc1cc(N2CCCCC2)nc2ccccc12"
## Output 0

## Input Here is the next compound: C[C@]12C=CC(=O)N[C@@H]1CC[C@@H]1[C@@H]2CC[C@]2(C)[C@@H](C(=O)Nc3cc(C(F)(F)F)ccc3C(F)(F)F)CC[C@@H]12 [dutasteride]
## Output 0

## Input Here is the next compound: "CN(C)CCc1c[nH]c2ccc(CS(=O)(=O)N3CCCC3)cc12"
## Output 0

## Input Here is the next compound: "COc1ccn2ncc(-c3nc4[nH]nc(NC(=O)c5ccc(F)cc5)c4cc3F)c2c1"
## Output 0.6
